Entry source: ChEMBL document CHEMBL5576049

- System: SNU-387
- Test Method Notes: Cytotoxicity against human SNU-387 cells assessed as cell growth inhibition incubated for 72 hrs by SRB assay
- Assay type: functional, cell-based
- Measurement Conditions: SNU-387, 72 h
Endpoint Name: IC50 (µM)

>>> test_value("FC(F)(F)c1ccc(-c2nc3c(N4CCN(c5ccc(C(F)(F)F)cc5)CC4)ncnc3n2C2CCCC2)cc1")
98.7
